Ref: patent US4889854A

As shown below, each of these compounds has a reported LD50 value.
# testName: acute toxicity, single oral administration to mice
# experimentalParameters: mouse, in vivo, single oral administration (p.o.)
assayMetric: LD50

COC[C@H]1CCCN1C(=O)c1cc(-c2ccccc2)c(=O)n2c1-c1cc(Cl)ccc1CN2 [Compound B] : > 3000 mg/kg
O=C(c1cc(-c2ccccc2)c(=O)n2c1-c1cc(Cl)ccc1CN2)N1CCOCC1 [Compound A] : > 3000 mg/kg
COC1CN(C(=O)c2cc(-c3ccccc3)c(=O)n3c2-c2sccc2CN3C)C1 [G] : > 5000 mg/kg
COC1CN(C(=O)c2cc(-c3ccccc3)c(=O)n3c2-c2sccc2C(C)N3)C1 (racemic) [F] : 3000 mg/kg
CN(C)C(=O)c1cc(-c2ccccc2)c(=O)n2c1-c1sccc1CN2 [H] : > 5000 mg/kg
